test system: RAW264.7; assay: Cytotoxicity against mouse RAW264.7 cells assessed as cell viability after 16 hrs by MTT assay; type: cell-based; conditions: raw264.7, 16 h
ATTRIBUTE_MEASURED: Activity

CC(C)(O)[C@H]1OC[C@@H]([C@H]2CC[C@@]3(C)[C@@H]4CC[C@H]5C(C)(C)C(=O)CC[C@@]56C[C@@]46CC[C@]23C)C[C@@H]1O :: Non-toxic
CC1(C)OC[C@@H]([C@H]2CC[C@@]3(C)[C@@H]4CC[C@H]5C(C)(C)C(=O)CC[C@@]56C[C@@]46CC[C@]23C)C[C@@H](O)[C@@H]1O :: Non-toxic
COC(=O)/C=C(\C)CC[C@@]1(C)[C@H](C)CC[C@@]2(C)C(C)=CC(=O)C[C@H]12 :: Non-toxic
C[C@H](C[C@@H](O)[C@H](O)C(C)(C)O)[C@H]1CC[C@@]2(C)[C@@H]3CC[C@H]4C(C)(C)C(=O)CC[C@@]45C[C@@]35CC[C@]12C :: Non-toxic

Now consider the entry below.
Prompt line: Name the recorded Activity of the compound listed here: C=C[C@@]1(C)CC(=O)[C@H]2[C@@H](CC[C@H]3C(C)(C)[C@@H](O)CC[C@]23C)C1
Response line: Non-toxic

* * *

For each of the compounds below, state its inhibition at 3.1 µM.
tested on: RAW264.7; assay: Antiinflammatory activity in mouse RAW264.7 cells assessed as inhibition of LPS-induced nitric oxide production at 3.1 uM after 24 hrs by Griess assay relative to control; assay type: functional; details: RAW264.7, 24 h
In your response, put the unit directly after the numeric value.

Prompt line: Specify measured inhibition at 3.1 µM for C[C@H](C[C@@H](O)[C@H](O)C(C)(C)O)[C@H]1CC[C@@]2(C)[C@@H]3CC[C@H]4C(C)(C)C(=O)CC[C@@]45C[C@@]35CC[C@]12C .
Response line: 12.8%

Prompt line: Look up inhibition at 3.1 µM of COC(=O)/C=C(\C)CC[C@@]1(C)[C@H](C)CC[C@@]2(C)C(C)=CC(=O)C[C@H]12 and report it.
Response line: 19.4%

Prompt line: Look up inhibition at 3.1 µM of CC1(C)OC[C@@H]([C@H]2CC[C@@]3(C)[C@@H]4CC[C@H]5C(C)(C)C(=O)CC[C@@]56C[C@@]46CC[C@]23C)C[C@@H](O)[C@@H]1O and report it.
Response line: 11.3%

* * *

tested on: RAW264.7; assay: Antiinflammatory activity in mouse RAW264.7 cells assessed as inhibition of LPS-induced nitric oxide production at 3.1 uM after 24 hrs by Griess assay relative to control; format: functional; details: RAW264.7, 24 h
Could you please report measured inhibition at 3.1 µM for the items listed next?
// return numeric value only (unit: %, not printed)

Prompt line: Give the reported value of inhibition at 3.1 µM for this record: CC(C)(O)[C@H]1OC[C@@H]([C@H]2CC[C@@]3(C)[C@@H]4CC[C@H]5C(C)(C)C(=O)CC[C@@]56C[C@@]46CC[C@]23C)C[C@@H]1O
Response line: 12.5

Prompt line: Write down inhibition at 3.1 µM measured for item COc1ccc2c(c1)c(CC(=O)O)c(C)n2C(=O)c1ccc(Cl)cc1
Response line: 21.5

Prompt line: Find the measured inhibition at 3.1 µM of C=C[C@@]1(C)CC(=O)[C@H]2[C@@H](CC[C@H]3C(C)(C)[C@@H](O)CC[C@]23C)C1 and report it.
Response line: 19.8

meta.source: ChEMBL document CHEMBL3580557
